Data origin, for the record: PubChem BioAssay (NCI)

Tested on: SF-539 CNS
METHOD_DESCRIPTION: NCI tumour cell line growth inhibition, 48 h
EXPERIMENTAL_READOUT: TGI (µM)
Give the number; µM is assumed, so skip it.

Worked examples follow.
>>> quantitative_result("O=C(c1ccc(Cl)cc1)N(Cc1cccnc1)C(=S)N(Cc1cccnc1)C(=O)c1ccc(Cl)cc1")
50.4
>>> quantitative_result("COC(=O)Nc1nc2c(OC)c(OC)c(OC)cc2[nH]1")
73.3
>>> quantitative_result("C=C(C)CC1=C(C(=S)NCCO[Si](C)(C)C(C)(C)C)C(OCC)(OCC)C1=O")
37.8
>>> quantitative_result("BrP(NC1CCCCCC1)(c1ccccc1)(c1ccccc1)c1ccccc1")
34.4
>>> quantitative_result("CC(=O)OCCC/C(=C\\c1ccc2ccccc2c1)[N+](=O)[O-]")
3.32
>>> quantitative_result("Cc1cc(C)cc(Nc2nccc(-c3c(-c4ccc(F)cc4)ncn3C3CCNCC3)n2)c1")
3.25
>>> quantitative_result("CSc1nc(Cl)c(Br)c(Nc2c[nH]c(=O)[nH]c2=O)n1")
45.2
>>> quantitative_result("COc1cc(N(C)C)ccc1/C=c1/c2ccccc2n2c1cc(-c1ccccc1)[n+]2C")
0.873

Req: Return reported TGI; argument: O=S(=O)(NC(=S)Nc1ccccc1)c1ccc(N2N=C3c4ccccc4CC3C2c2ccc(Cl)cc2)cc1 (stereo not given)
Resp: 45.7

###

Test system: HOP-62 NSCLC
METHOD_DESCRIPTION: NCI tumour cell line growth inhibition, 48 h
EXPERIMENTAL_READOUT: TGI

Recorded TGI, per entry:
>>> result("O=C(/C=C/c1cccs1)c1ccsc1")
"> 100 µM"
>>> result("CSc1nc2c(nc(N)n2C2OCC(O)C(O)C2O)c(=O)[nH]1 (configuration not stated)")
"> 100 µM"
>>> result("CC1=C(C(=O)Nc2ccccc2C)C(c2ccc(N(C)C)cc2)C(C(=O)Nc2ccccc2C)=C(C)N1")
"> 100 µM"

Req: Need TGI, item Nc1c(C(=O)Nc2cccc3ccccc23)sc2nc3c(cc12)CCCC3
Resp: > 100 µM

Req: I would be grateful if you could share the reported TGI for c1ccc(Cn2cc3c(c2)-c2oncc2CC3)cc1 .
Resp: > 59.4 µM

Req: Recorded TGI for COc1ccc(N2CCN(CC(=O)N3CCN(c4nnc(-c5ccccc5)c(-c5ccccc5)n4)CC3)CC2)cc1 , please?
Resp: > 100 µM

Req: What TGI value was documented for this compound, Cc1c(N2C(=O)/C(=C\c3ccc(O)cc3)N=C2c2ccccc2)c(=O)n(-c2ccccc2)n1C ?
Resp: > 100 µM

Req: Entry COc1ccc(-c2cc(-c3ccccc3)c(C#N)c(=O)[nH]2)cc1 : reported TGI = ?
Resp: > 100 µM

###

Catalogue of molecules with associated TGI
Test system: MDA-MB-231 breast
METHOD_DESCRIPTION: NCI tumour cell line growth inhibition, 48 h

See these solved cases before continuing.
>>> result("CC(C)(C)OC(=O)NC(CCCCNC(=O)OCc1ccccc1)C(=O)NC(CCCCNC(=O)OCc1ccccc1)C(=O)ON1C(=O)CCC1=O (stereo unspecified)")
"> 100 µM"
>>> result("O=C1CCC2=C(CCC2)N1CCc1ccc2c(c1)OCO2")
"> 100 µM"

Req: Looking for the measured TGI of CCOC(OCC)C(CCc1ccccc1)c1c(N)nc(N)[nH]c1=O (stereo unspecified) , can you help?
Resp: > 100 µM
